System: H. influenza Hi47 clinical strain, Ampicillin Resistant
protocol.notes: organism not typed
Type: cell-based
test.conditions: read-out: MIC Hi47
assay.readout: MIC

Item under review: COC[C@@H]1[C@@H](O)[C@@H]2[C@H]3C=C[C@@H]4[C@@H](COC)C(=O)O[C@H]([C@H](O)COC)[C@H](C)/C=C(\C)[C@@]24O[C@H]3[C@@H]1OC(=O)c1cc(C)c[nH]1 [Compound 12] . Reported MIC?
64 µg/mL

Need MIC of CO[C@H]1C[C@H]2C=C[C@H]3[C@H]4O[C@]2(/C(C)=C/[C@@H](C)[C@@H]([C@@H](C)O)OC1=O)[C@@H]3[C@H](O)[C@@H](C)[C@H]4OC(=O)c1ccc[nH]1 [Nargenicin A1, reference compound] , thanks.
64 µg/mL

Please give the measured MIC for this compound: COC[C@@H]1[C@@H](O)[C@@H]2[C@H]3C=C[C@@H]4[C@@H](COC)C(=O)O[C@H]([C@H](O)COC)[C@H](C)/C=C(\C)[C@@]24O[C@H]3[C@@H]1OC(=O)c1cc(F)c[nH]1 [Compound 19]
> 64 µg/mL

Could you share which MIC value was measured for COC[C@@H](O)[C@H]1OC(=O)[C@H](COC)[C@H]2C=C[C@H]3[C@H]4O[C@]2(/C(C)=C/[C@H]1C)[C@@H]3[C@H](O)[C@@H](C)[C@H]4OC(=O)c1cc(F)c[nH]1 [Compound 23] ?
64 µg/mL

Which MIC is reported for this compound? COC[C@@H]1[C@@H](O)[C@@H]2[C@H]3C=C[C@@H]4[C@@H](COC)C(=O)O[C@H]([C@H](O)COC)[C@H](C)/C=C(\C)[C@@]24O[C@H]3[C@@H]1OC(=O)c1cc(C#N)c[nH]1 [Compound 26]
> 128 µg/mL

Further cases:
Which measured MIC value corresponds to COC[C@@H]1[C@@H](O)[C@@H]2[C@H]3C=C[C@@H]4[C@@H](COC)C(=O)O[C@H]([C@H](O)COC)[C@H](C)/C=C(\C)[C@@]24O[C@H]3[C@@H]1OC(=O)c1cocn1 [Compound 8, 8-O-Oxazole-4′-carbonylbranimycin] ?
> 64 µg/mL

Need MIC, item COC[C@@H](O)[C@H]1OC(=O)[C@H](COC)[C@H]2C=C[C@H]3[C@H]4O[C@]2(/C(C)=C/[C@H]1C)[C@@H]3[C@H](O)[C@@H](C)[C@H]4O [Compound 1, Baleomycin]
64 µg/mL

Recorded MIC of COC[C@@H](O)[C@H]1OC(=O)[C@H](COC)[C@H]2C=C[C@H]3[C@H]4O[C@]2(/C(C)=C/[C@H]1C)[C@@H]3[C@H](O)[C@@H](C)[C@H]4OC(=O)c1ccoc1 [Compound 7, 8-O-Furane-3′-carbonylbaleomycin] , please.
64 µg/mL

// returns reported MIC for input COC[C@H]1[C@@H](O)[C@@H]2O[C@@]34/C(C)=C/[C@@H](C)[C@@H]([C@H](O)COC)OC(=O)[C@H](COC)[C@H]3C=C[C@@H]2[C@H]4[C@@H]1O [Branimycin, reference compound]
> 64 µg/mL

###

assayed.target: DNA III Polymerase E (Escherichia coli)
Sequence (P10443 whole entry): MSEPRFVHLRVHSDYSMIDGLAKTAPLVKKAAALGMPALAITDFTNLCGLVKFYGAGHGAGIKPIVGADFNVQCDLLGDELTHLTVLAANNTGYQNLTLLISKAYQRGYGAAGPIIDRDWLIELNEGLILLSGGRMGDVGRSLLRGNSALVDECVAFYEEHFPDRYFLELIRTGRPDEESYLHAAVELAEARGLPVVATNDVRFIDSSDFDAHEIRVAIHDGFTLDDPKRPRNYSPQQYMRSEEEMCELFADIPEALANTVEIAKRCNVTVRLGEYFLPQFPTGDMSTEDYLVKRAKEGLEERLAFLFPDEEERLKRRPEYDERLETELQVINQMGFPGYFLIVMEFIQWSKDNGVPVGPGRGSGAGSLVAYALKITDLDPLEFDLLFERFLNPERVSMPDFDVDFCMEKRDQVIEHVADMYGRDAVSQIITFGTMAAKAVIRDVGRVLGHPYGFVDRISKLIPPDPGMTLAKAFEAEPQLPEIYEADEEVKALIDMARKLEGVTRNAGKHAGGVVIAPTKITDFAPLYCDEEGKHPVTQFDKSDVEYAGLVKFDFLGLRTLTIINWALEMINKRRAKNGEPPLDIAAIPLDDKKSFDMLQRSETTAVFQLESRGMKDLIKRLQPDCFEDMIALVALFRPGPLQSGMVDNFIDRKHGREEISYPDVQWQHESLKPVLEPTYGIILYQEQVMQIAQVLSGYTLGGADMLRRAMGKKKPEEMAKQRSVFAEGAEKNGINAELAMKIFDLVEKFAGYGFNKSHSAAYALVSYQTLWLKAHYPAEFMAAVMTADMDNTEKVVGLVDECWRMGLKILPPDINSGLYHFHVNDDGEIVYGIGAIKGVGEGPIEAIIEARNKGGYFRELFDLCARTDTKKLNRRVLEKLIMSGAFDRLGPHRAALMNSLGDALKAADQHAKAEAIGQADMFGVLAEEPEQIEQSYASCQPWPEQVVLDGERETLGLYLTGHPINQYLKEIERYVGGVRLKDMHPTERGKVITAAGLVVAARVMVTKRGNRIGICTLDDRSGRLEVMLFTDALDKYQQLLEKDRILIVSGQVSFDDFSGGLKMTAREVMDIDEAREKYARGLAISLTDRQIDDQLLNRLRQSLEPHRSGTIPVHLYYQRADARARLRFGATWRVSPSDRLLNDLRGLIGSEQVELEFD
protocol.notes: In vitro activity against DNA III Polymerase E, E. coli
Type: biochemical
test.conditions: DNA polymerase III, E. coli; read-out: IC50 semiquantitative scoring, E. coli
assay.readout: IC50

Use these answered entries as a reference point.
Consider the molecule COC[C@@H]1[C@@H](O)[C@@H]2[C@H]3C=C[C@@H]4[C@@H](COC)C(=O)O[C@H]([C@@H](COC)OC)[C@H](C)/C=C(\C)[C@@]24O[C@H]3[C@@H]1OC(=O)c1ccc[nH]1 [Compound 18] and give its measured IC50.
1.7 to 17 µM

// IC50 lookup, key: COC[C@@H]1[C@@H](O)[C@@H]2[C@H]3C=C[C@@H]4C[C@H](O)C(=O)O[C@H]([C@H](O)COC)[C@H](C)/C=C(\C)[C@@]24O[C@H]3[C@@H]1OC(=O)c1ccc[nH]1 [Nargenicin B1, reference compound]
> 17.8 µM

What value of measured IC50 is listed for COC[C@@H]1[C@@H](O)[C@@H]2[C@H]3C=C[C@@H]4[C@@H](COC)C(=O)O[C@H]([C@H](O)COC)[C@H](C)/C=C(\C)[C@@]24O[C@H]3[C@@H]1OC(=O)c1ccon1 [Compound 13, 8-O-Isoxazole-3′-carbonylbranimycin] ?
> 17.3 µM

Which IC50 value is on record for COC[C@@H]1[C@@H](O)[C@@H]2[C@H]3C=C[C@@H]4[C@@H](COC)C(=O)O[C@H]([C@H](O)COC)[C@H](C)/C=C(\C)[C@@]24O[C@H]3[C@@H]1OC(=O)c1cc(C)c[nH]1 [Compound 12] ?
> 17 µM

Entry COC[C@@H]1[C@@H](O)[C@@H]2[C@H]3C=C[C@@H]4[C@@H](COC)C(=O)O[C@H]([C@H](O)COC)[C@H](C)/C=C(\C)[C@@]24O[C@H]3[C@@H]1OC(=O)c1ccoc1 [Compound 5, 8-O-Furane-3′-carbonylbranimycin] : reported IC50 = ?
> 17.3 µM

Can you look up the measured IC50 of COC[C@@H]1[C@@H](O)[C@@H]2[C@H]3C=C[C@@H]4[C@@H](COC)C(=O)O[C@H]([C@H](O)COC)[C@H](C)/C=C(\C)[C@@]24O[C@H]3[C@@H]1OC(=O)c1cc(C#N)c[nH]1 [Compound 26] for me?
1.66 to 16.6 µM

***
Recorded IC50 of COC[C@@H]1[C@@H](O)[C@@H]2[C@H]3C=C[C@@H]4[C@@H](COC)C(=O)O[C@H]([C@H](O)COC)[C@H](C)/C=C(\C)[C@@]24O[C@H]3[C@@H]1OC(=O)c1cocn1 [Compound 8, 8-O-Oxazole-4′-carbonylbranimycin] , please.
> 17.3 µM

May I ask what IC50 has been recorded for COCC(=NO)[C@H]1OC(=O)[C@H](COC)[C@H]2C=C[C@H]3[C@H]4O[C@]2(/C(C)=C/[C@H]1C)[C@@H]3[C@H](O)[C@@H](COC)[C@H]4OC(=O)c1cc(F)c[nH]1 [Compound 40] ?
0.00165 to 1.65 µM

All values here come from patent US20160297830A1.
